System: Isocitrate dehydrogenase [NADP] cytoplasmic (Homo sapiens), O75874 [R132H]
Sequence (O75874 whole entry R132H): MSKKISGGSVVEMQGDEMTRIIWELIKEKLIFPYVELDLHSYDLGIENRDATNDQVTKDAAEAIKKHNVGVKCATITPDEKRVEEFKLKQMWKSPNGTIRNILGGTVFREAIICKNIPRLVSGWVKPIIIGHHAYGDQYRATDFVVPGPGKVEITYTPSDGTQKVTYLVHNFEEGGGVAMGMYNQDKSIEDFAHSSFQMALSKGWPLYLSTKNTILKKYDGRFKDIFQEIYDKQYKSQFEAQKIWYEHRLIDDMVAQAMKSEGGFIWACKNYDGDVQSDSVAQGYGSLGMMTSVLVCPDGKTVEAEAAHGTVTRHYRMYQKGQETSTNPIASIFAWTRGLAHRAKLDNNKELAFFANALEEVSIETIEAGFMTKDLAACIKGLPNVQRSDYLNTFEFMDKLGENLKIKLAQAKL
EXPERIMENTAL PROTOCOL: Inhibition of IDH1 R132H mutant (unknown origin) assessed as reduction in NADPH consumption using alpha-KG as substrate at 38 uM incubated for 5 mins by diaphorase/resazurin-coupled system relative to control
A collection of molecules and their measured inhibition
Note: state the figure and append the unit.

Worked cases, answers included:
Enquiry: Sample `CC1(C)CC(=O)c2cc(-c3nc(-c4ccc(Cl)cc4)cs3)c(=O)n(-c3ccccc3-c3ccccc3)c2C1` — what was its inhibition?
Return: 59%

Enquiry: Now this one: `COc1ccc(OC)c(-n2c3c(cc(-c4nc(-c5ccc(Cl)cc5)c[nH]4)c2=O)C(=O)CC(C)(C)C3)c1`
Return: 82%

Enquiry: Now this one: `CCc1cccc(CC)c1-n1c(C)c(C(=O)NCCN)cc(-c2nc(-c3ccc(Cl)cc3)cs2)c1=O`
Return: 97%

Let us examine a further case.
Enquiry: Sample `COc1ccc(OC)c(-n2c3c(cc(-c4cc(-c5ccccc5)[nH]n4)c2=O)C(=O)CC(C)(C)C3)c1` — what was its inhibition?
Return: 47%

---

System: Isocitrate dehydrogenase [NADP] cytoplasmic (Homo sapiens), O75874 [R132H]
EXPERIMENTAL PROTOCOL: Inhibition of IDH1 R132H mutant (unknown origin) expressed in human U87 cells assessed as R-2-hydroxyglutarate production at 500 nM after 48 hrs by LC-MS analysis
Type: cell-based
Set-up: scale not given: the % may be the effect or the level left
ATTRIBUTE MEASURED: Activity (%)
Give the value, in units of %, as a plain number.

Worked cases, answers included:
Enquiry: Sample `CCc1cccc(CC)c1-n1c(C=C(C)C)c(C(=O)N2CCNC(=O)C2)cc(-c2nc(-c3ccc(Cl)cc3)cs2)c1=O` — what was its Activity?
Return: 13

Enquiry: Now this one: CCc1cccc(CC)c1-n1c(C=C(C)C)c(C(=O)N2CCNC(C)C2)cc(-c2nc(-c3ccc(Cl)cc3)cs2)c1=O (centres undefined)
Return: 8

Enquiry: Now this one: `CCc1cccc(CC)c1-n1c(C=C(C)C)c(C(=O)N2CCNCC2)cc(-c2nc(-c3ccc(Cl)cc3)cs2)c1=O`
Return: 16

Let us examine a further case.
Enquiry: Sample `CCc1cccc(CC)c1-n1c(C=C(C)C)c(C(=O)N2CCNC3(CC3)C2)cc(-c2nc(-c3ccc(Cl)cc3)cs2)c1=O` — what was its Activity?
Return: 14

---

SUBJECT OF TEST: Isocitrate dehydrogenase [NADP] cytoplasmic (Homo sapiens, UniProt O75874, R132C)
Sequence (O75874 2-414 R132C limits assumed): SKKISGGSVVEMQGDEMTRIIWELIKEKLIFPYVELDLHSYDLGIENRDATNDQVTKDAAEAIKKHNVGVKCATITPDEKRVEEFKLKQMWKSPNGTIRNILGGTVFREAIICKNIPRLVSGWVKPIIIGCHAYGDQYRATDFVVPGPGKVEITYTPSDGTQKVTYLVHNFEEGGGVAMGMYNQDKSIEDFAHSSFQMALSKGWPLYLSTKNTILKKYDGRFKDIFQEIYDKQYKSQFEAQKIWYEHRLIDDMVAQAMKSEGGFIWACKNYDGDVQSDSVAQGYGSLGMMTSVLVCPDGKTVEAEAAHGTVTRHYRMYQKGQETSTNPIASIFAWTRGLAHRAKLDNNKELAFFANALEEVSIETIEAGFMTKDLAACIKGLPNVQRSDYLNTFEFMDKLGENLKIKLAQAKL
EXPERIMENTAL PROTOCOL: Inhibition of IDH1 R132C mutant (unknown origin) assessed as reduction in NADPH consumption using alpha-KG as substrate incubated for 5 mins by diaphorase/resazurin-coupled system
pIC50: −log10 of the molar value.
Assign class by pIC50: not lower than 6 means y; lower than 6 means n.

Below are worked cases with known answers.
Enquiry: Given `COc1ccc(OC)c(-n2c3c(cc(-c4nc5cc(Cl)ccc5s4)c2=O)C(=O)CC(C)(C)C3)c1` , state whether its pIC50 is at least 6.
Return: n

Enquiry: Now this one: `COc1cccc(C(=O)O)c1-n1c2c(cc(-c3nc(-c4ccc(Cl)cc4)cs3)c1=O)C(=O)CC(C)(C)C2`
Return: n

Enquiry: Now this one: `COc1ccc(C(=O)O)cc1-n1c2c(cc(-c3nc(-c4ccc(Cl)cc4)cs3)c1=O)C(=O)CC(C)(C)C2`
Return: n

Enquiry: Now this one: `COc1ccc(OC)c(-n2c(C)ccc(-c3nc(-c4ccc(Cl)cc4)cs3)c2=O)c1`
Return: n

Enquiry: Now this one: `CCc1cccc(CC)c1-n1c(C=C(C)C)c(C(=O)N2CCNC(=O)C2)cc(-c2nc(-c3ccc(Cl)cc3)cs2)c1=O`
Return: y

Enquiry: Now this one: `CCc1cccc(CC)c1-n1c(C)c(C(=O)NCCNC)cc(-c2nc(-c3ccc(Cl)cc3)cs2)c1=O`
Return: y

Please find the next molecule below.
Enquiry: Given `COc1ccc(OC)c(-n2c3c(cc(-c4nc5ccc(Cl)cc5s4)c2=O)C(=O)CC(C)(C)C3)c1` , state whether its pIC50 is at least 6.
Return: n

Data origin, for the record: ChEMBL document CHEMBL4811250
